Please respond with reported growth for every item in the list.
- System: K-562 leukemia
- TEST SUMMARY: NCI-60 one-dose screen, 48 h (100 = growth as untreated, 0 = no growth, -100 = all killed)
- TEST PARAMETERS: 10 µM unless noted
About 83,000 compounds went through this panel and 20% of them were active in at least one assay; those are over-represented in the sample as a whole.
Please respond with the number in % and leave the unit unwritten.

Input line: Any idea what its growth is? The molecule is C=C(C)[C@@H]1CC[C@]2(C)[C@H](CC[C@@H]3[C@H]4[C@H]5OC[C@@]4(CCC5(C)C)CC[C@]32C)[C@@]1(C)CCCN
Output line: 3.82

Input line: Need growth, item Cc1cc(C=O)c(C)c2c1[nH]c1ccccc12
Output line: 97.8

Input line: GET /values?readout=growth&item= Nc1ccc(Br)cn1
Output line: 117

Input line: growth for Cn1cc(-c2csc(-c3cn(CCNC(=O)OC(C)(C)C)c4ccc(F)cc34)n2)c2cccnc21 ?
Output line: 56.4

Input line: Reported growth, molecule C#Cc1cc2c(N)c(C(=O)c3cc(OC)c(OC)c(OC)c3)[nH]c2cc1OC : ____
Output line: 13.4

====

So I've got a bunch of compounds here, and I need their growth values.
- Tested on: HOP-62 NSCLC
- TEST SUMMARY: NCI-60 one-dose screen, 48 h (100 = growth as untreated, 0 = no growth, -100 = all killed)
- TEST PARAMETERS: 10 µM unless noted
This is part of a sample that, as a whole, favours compounds with a hit. Of some 83,000 tested, about 20% had one in any assay. Activity calls are given as the source filed them. How the source made its calls: active means growth percent below 10; inactive means the rest.

Input line: # get_value(readout='growth', item= COc1cc(-c2cc3ncccc3c3nc(OCCN(C)C)c4cccnc4c23)cc(OC)c1OC )
Output line: -45.6% (active)

Input line: For the compound shown here, C#CCn1c2c(c3ccccc31)C[C@]1(C)[C@H]3CC[C@@H]4[C@@H]5C(=CCC[C@H]5C(=C)C)CC[C@@]4(C)[C@]3(C)CC[C@H]1C2(C)C , give the reported growth.
Output line: 97.1% (inactive)

Input line: Consider the compound shown here: O=C1c2ccccc2NC(c2cn(-c3ccccc3)nc2-c2cccs2)N1Cc1ccccc1 (centres undefined) What is its recorded growth?
Output line: 86.9% (inactive)

Input line: Which growth is reported for this compound? Nc1c2c(nc3ccc(Cl)cc13)CC(c1ccccc1)CC2=O (centres undefined)
Output line: 53.9% (inactive)

====

- Test system: HT29 colon
- TEST SUMMARY: NCI-60 one-dose screen, 48 h (100 = growth as untreated, 0 = no growth, -100 = all killed)
- TEST PARAMETERS: 10 µM unless noted
- Procedure: Growth inhibition of the HT29 human tumor cell line is measured as a screen for anti-cancer activity. Cells are grown in 96 well plates and exposed to the test compound for 48 hours. Compounds are tested at a single concentration, which is 10^-5 M for most compounds. The reported endpoint is percent growth (GI% or GIPRCNT), where numbers from 0 - 100% represent growth inhibition, and numbers from -100% - 0 represent cell death. For example, a value of 40 represents 60% growth inhibition. […]
About 83,000 compounds went through this panel and 20% of them were active in at least one assay; those are over-represented in the sample as a whole.
READOUT NAME: growth (%)
Write down the numeric answer in % and omit the unit.

Input line: growth lookup needed for CC(=O)O[C@H]1CC[C@@]2(C)C(=CC[C@@H]3[C@@H]2CC[C@]2(C)C(=O)N(O)C(=O)C[C@@H]32)C1 , thanks.
Output line: 89.2

Input line: # lookup: growth of CC(=O)N1N=C(c2ccc(C)cc2)CC1c1ccc(Oc2ccc(Br)cc2)cc1 (centres undefined)
Output line: 79

Input line: Reported growth, compound Cn1c(=O)c2c(ncn2CC(=O)Nc2ccc(S(N)(=O)=O)cc2)n(C)c1=O : ____
Output line: 94.8

Input line: Could you tell me which growth is on file for Cc1cc2nc3c4cc([N+](=O)[O-])cc([N+](=O)[O-])c4n(CCN(C)C)c3nc2cc1C ?
Output line: 65.6

Input line: # input compound: Fc1ccc2nc(-c3cc(-c4ccc5c(c4)OCO5)n[nH]3)[nH]c2c1 ; wanted: its growth
Output line: 61.6

Input line: Requested field: growth. Item: NC(N)=N/N=C/c1ccc(-c2ccc(-c3ccc(Cl)cn3)s2)cc1
Output line: 11.9

Input line: Which growth value belongs to CCSc1sc(-c2ccc(C)cc2)nc1[P+](c1ccccc1)(c1ccccc1)c1ccccc1 ?
Output line: 2.52

Input line: I would be grateful if you could share the reported growth for Nc1ccc(Br)cn1 .
Output line: 104

Input line: May I ask what growth has been recorded for C=C(C)[C@@H]1CC[C@]2(C(=O)O)CC[C@]3(C)[C@H](CC[C@@H]4[C@@]5(C)C/C(=C/c6ccc(OC)cc6)C(=O)C(C)(C)[C@@H]5CC[C@]43C)[C@@H]12 ?
Output line: 16

====

- Tested on: EKVX NSCLC
- TEST SUMMARY: NCI-60 one-dose screen, 48 h (100 = growth as untreated, 0 = no growth, -100 = all killed)
- TEST PARAMETERS: 10 µM unless noted
This is part of a sample that, as a whole, favours compounds with a hit. Of some 83,000 tested, about 20% had one in any assay. Activity calls are given as the source filed them. The calls were made as follows: active = growth percent below 10; inactive = the rest.
Field: growth. Provide a value for each of the compounds that follow.

Input line: Bench note: what growth did Cn1c2ccccc2c2c3c(c4c5cccnc5[nH]c4c21)C(=O)N(O)C3=O show?
Output line: 85.9% (inactive)

Input line: Returns the measured growth for the input compound. Input: COC(=O)CCCCCn1c2ccccc2c2c3c(c4c5ccccc5[nH]c4c21)C(=O)N(O)C3=O
Output line: 75.3% (inactive)

Input line: Dear colleague, I am looking for the recorded growth of the following compound: CC(=O)O[C@@H]1CCN2C(=O)N(C)c3ccccc3[C@@H]2C1
Output line: 114% (inactive)

Input line: Look at this compound and give its reported growth. c1ccc(CN2C(c3ccccc3)=Nc3ccccc3C2c2c[nH]c3ccccc23)cc1 (stereo not drawn)
Output line: 37.3% (inactive)

Input line: Item under review: CCCNc1nc(N(C)O)nc(N(C)O)n1 . Reported growth?
Output line: 36.9% (inactive)

Input line: Could you tell me which growth is on file for CCCCCCCC(=O)SCC/C=C/[C@@H]1CC(=O)NCc2cccc(n2)CN(Cc2ccc(Cl)cc2)CC(=O)N[C@@H](C(C)C)C(=O)O1 ?
Output line: 32.5% (inactive)

Input line: Bench note: what growth did O=C1c2ccccc2NC(c2cn(-c3ccccc3)nc2-c2cccnc2)N1Cc1ccccc1 (stereo not drawn) show?
Output line: 81.3% (inactive)

Input line: GET /values?readout=growth&item= CN(C)CCCC1(c2ccc(F)cc2)OCc2cc(-c3ccc(C(F)(F)F)nc3)ccc21 (stereo not drawn)
Output line: 76.1% (inactive)

Input line: GET /values?readout=growth&item= COc1ccc(-c2nc3c(c(C)nn3-c3ccc(F)cc3)c(=O)[nH]2)cc1
Output line: 81.6% (inactive)

Input line: # input compound: O=C1C(Cl)=C(Nc2ccc(S(=O)(=O)c3ccc(NC4=C(Cl)C(=O)c5ccccc5C4=O)cc3)cc2)C(=O)c2ccccc21 ; wanted: its growth
Output line: 59.1% (inactive)

Input line: Query: growth; subject: CC1(c2ccccc2)OC1C(=O)O (stereo not drawn)
Output line: 107% (inactive)

Input line: growth for O=C1CCCC=CC[C@H]2C=C(Cl)C(=O)C2=CC[C@H](CCCCC(F)(F)F)OC(=O)CCCC=CC[C@H]2C=C(Cl)C(=O)C2=CC[C@H](CCCCC(F)(F)F)OC(=O)CCCC=CC[C@H]2C=C(Cl)C(=O)C2=CC[C@H](CCCCC(F)(F)F)O1 ?
Output line: 98.4% [6.25 µM] (inactive)

Input line: Could you tell me which growth is on file for CN1CCN(CC#CCn2c3c(c4ccccc42)C[C@]2(C)[C@H]4CC[C@@H]5[C@H]6[C@H]7OC(=O)[C@@]6(CCC7(C)C)CC[C@@]5(C)[C@]4(C)CC[C@H]2C3(C)C)CC1 ?
Output line: 99.2% (inactive)

Input line: What value of measured growth is listed for N#CC1=C(N)Oc2ccc3ccccc3c2C1c1ccccc1Cl (stereo not drawn) ?
Output line: 42.5% (inactive)

Input line: Could you tell me which growth is on file for Cn1cc(-c2nc(-c3c[nH]c4ncccc34)cs2)c2ccccc21 ?
Output line: 22.7% (inactive)

Input line: Please look up its growth: O=C(NO)c1ccc(Cn2c(=O)n(-c3ccccc3)c(=O)c3ccccc32)cc1
Output line: 21.6% (inactive)

Input line: Look at this compound and give its reported growth. COc1ccc(CCN2C(=O)C(C)(C)SC2=S)cc1OC
Output line: 94% (inactive)

Input line: May I ask what growth has been recorded for COc1cc(-c2c(C#N)c(-c3cccs3)nc3c2c(-c2ccccc2)nn3-c2ccccc2)ccc1O ?
Output line: 79.9% (inactive)
